assay: chemical genetic growth profiling, strain panel (AID 1159580);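 also: tested at 20 µM; growth read once vehicle control cultures reached saturation at 30 °C; 1 = growth at the plate median or of vehicle wells; lower values mean less growth of the strain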; settings: S. cerevisiae deletion strains, growth OD, locus YPR025C, strain CCL1, hits give low values
The whole screen tested about 5,500 compounds, of which about 2,000 (36%) were called active. About 18% were inconclusive and are not listed. This is one part of the list.

COMPOUND | normalized growth
CCOC(=O)NC(=S)NC12CC3CC(CC(C3)C1)C2 | 0.982
Cc1cc(C(=O)O/N=C(/N)c2ccc(C(C)(C)C)cc2)no1 | 0.973
O=C(Nc1ccccn1)c1cc(-c2ccccc2)c(C(F)(F)F)s1 | 0.942
CSc1cccc(N2C(=O)CC(c3c(Cl)cccc3Cl)CC2=O)c1 | 0.986
CC1(C)C/C(=N/Nc2ccc(C(F)(F)F)cc2)c2cc(C(C)(C)C)c(O)c(O)c2O1 | 0.981
COc1ccccc1NC(=O)Nc1nn(C)c2cccc(OC)c12 | 0.926
CC12CC[C@@H](O)CC1=CC[C@@H]1C2CCC2(C)C(=O)CC[C@@H]12 (some centres not stated) | 1.02

* * *

assay: chemical genetic growth profiling, strain panel (AID 1159580); conditions: S. cerevisiae deletion strains, growth OD, locus YNL248C, strain rpa49, hits give low values
In all, about 5,500 compounds went through this assay and about 2,000 (36%) were called active. Not shown: some 18% with an inconclusive outcome. The list shows a part of the results.
# normalized growth per record follows

MOLECULE | normalized growth
CCOC(N)=O | 1
O=C(O)c1cc(=O)c(O)c2c(O)c(O)ccc2c1 | 1.04
O=C1CN(/N=C\c2ccc([N+](=O)[O-])o2)C(=O)N1 | 0.923
CCOc1ccc2c(c1)C(C)=CC(C)(C)N2 | 0.986
O=c1cccc2n1C[C@H]1CNCC2C1 | 1.09
CC12CCCC(O)(C1)C1CC(C)(C)C1CC2 (configuration not stated) | 1.01
C#C[C@]1(O)CCC2C3CCc4cc(OC)ccc4C3CC[C@@]21C (some centres not stated) | 0.951
CC[C@@]1(C2O[C@@H](C3O[C@@](O)(CC)[C@H](C)C[C@@H]3C)C[C@@H]2C)CC[C@H]([C@]2(C)CCC3(C[C@H](O)[C@@H](C)[C@@H]([C@H](C)[C@@H](OC)[C@H](C)C(=O)O)O3)O2)O1 (some centres not stated) | 1.03
C[C@](N)(Cc1ccc(O)c(O)c1)C(=O)O | 0.979
NCc1ccc(S(N)(=O)=O)cc1 | 1.04
O=C(/C=C/c1ccc(O)c(O)c1)O[C@@H]1C[C@](O)(C(=O)O)C[C@@H](O)[C@H]1O | 0.982
CS(=O)(=O)OCCCCOS(C)(=O)=O | 1.06
COc1ccc(-c2cc(C(F)F)nn2-c2ccc(S(N)(=O)=O)cc2)cc1F | 0.996
O=C(O)c1cc(=O)c(O)c2c(O)c(O)c(O)cc2c1 | 0.725
c1ccc(-c2ccc(C(c3ccccc3)n3ccnc3)cc2)cc1 (configuration not stated) | 0.0877
COc1cc(/C=C/C(=O)O)ccc1O | 1.01
CC1=CC(=O)CC(C)(C)C1(O)/C=C/C(C)=C\C(=O)O (configuration not stated) | 1.02
CC12CCC3C(CC=C4CC(O)CCC43C)C1CCC2=O (configuration not stated) | 0.777
O=C(O)c1cc(=O)c2c(OCC(O)COc3cccc4oc(C(=O)O)cc(=O)c34)cccc2o1 | 1
CN(C)CCCO[C@H]1[C@@H](C(O)CO)OC2OC(C)(C)O[C@@H]21 (some centres not stated) | 0.983
c1ccc2[nH]c(-c3cscn3)nc2c1 | 1.01
OC/C=C/c1ccc(O)c(O)c1 | 1
COc1ccc(C=CC(=O)c2ccc(O)cc2O)cc1OC | 0.935
C[C@@H]1CC2C3CCC4=CC(=O)C=C[C@]4(C)[C@@]3(F)[C@@H](O)C[C@]2(C)[C@@]1(O)C(=O)COP(=O)(O)O (some centres not stated) | 0.987
C[C@@H]1C[C@@H]([C@H](O)CC2CC(=O)NC(=O)C2)C(=O)[C@@H](C)C1 | 0.0754
NC(=O)c1cc[n+](CC2=C(C(=O)O)N3C(=O)C(NC(=O)C(c4ccccc4)S(=O)(=O)[O-])C3SC2)cc1 (configuration not stated) | 0.987
O=C(NC(Cc1cc(=O)[nH]c2ccccc12)C(=O)O)c1ccc(Cl)cc1 (configuration not stated) | 0.994

* * *

assay: chemical genetic growth profiling, strain panel (AID 1159580);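 also: tested at 20 µM; growth read once vehicle control cultures reached saturation at 30 °C; 1 = growth at the plate median or of vehicle wells; lower values mean less growth of the strain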; details: S. cerevisiae deletion strains, growth OD, locus YOR316C, strain cot1, hits give low values
Out of some 5,500 compounds screened, about 2,000 (36%) were called active. About 18% were inconclusive and are not listed. The list shows a part of the results.

COMPOUND | normalized growth
CCOC(=O)C1=C[C@]2(CC)CCCN3CCc4c(n1c1ccccc41)[C@@H]32 | 0.974
CCN(CC)CCOC(=O)C(Cc1cccc2ccccc12)CC1CCCO1 (stereo not given) | 1.01
O=C(O)c1cc(=O)c2c(OCC(O)COc3cccc4oc(C(=O)O)cc(=O)c34)cccc2o1 | 1.03
CN(Cc1cc(Br)cc(Br)c1N)C1CCCCC1 | 1.02
CC1=C(/C=C/C(C)=C/C=C/C(C)=C\C(=O)O)C(C)(C)CCC1 | 1.01
CC1=C(/C=C/C(C)=C/C=C/C(C)=C/C=C/C=C(C)/C=C/C=C(C)/C=C/C2=C(C)CCCC2(C)C)C(C)(C)CCC1 | 1
NCCCCN=C(N)N | 0.983
CC(=O)OC/C=C(C)/C=C/C=C(C)/C=C/C1=C(C)CCCC1(C)C | 0.999
O=C(O)P(=O)(O)O | 0.974
CC1=C(/C=C/C(C)=C/C=C/C(C)=C/CO)C(C)(C)CCC1 | 1

* * *

test: chemical genetic growth profiling, strain panel (AID 1159580);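 also: tested at 20 µM; growth read once vehicle control cultures reached saturation at 30 °C; 1 = growth at the plate median or of vehicle wells; lower values mean less growth of the strain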; conditions: S. cerevisiae deletion strains, growth OD, locus YDL035C, strain GPR1, hits give low values
The campaign covered roughly 5,500 compounds. About 2,000 (36%) were called active. Another 18% or so got no clear call; they are omitted. Some of the results follow.

COMPOUND | normalized growth
CC[C@@H](C(=O)[C@@H](C)[C@@H](O)[C@H](C)[C@@H]1O[C@@H]([C@@H](CC)C(=O)O)CC[C@@H]1C)[C@H]1OC2(C=C[C@@H](O)[C@]3(CC[C@@](C)([C@H]4CC[C@](O)(CC)[C@H](C)O4)O3)O2)[C@H](C)C[C@@H]1C (some centres undefined) | 0.876 (inactive)
CC1(C)CC2C1CCC1(C)OC1CCC2(C)O (centres undefined) | 1.03 (inactive)
CC1(C)CC2C1CCC1(C)OC2(C)CCC1O (centres undefined) | 0.989 (inactive)
CCn1cc(C(=O)O)c(=O)c2cc3c(cc21)OCO3 | 1.02 (inactive)
CCOC(=O)c1ccc(N)cc1 | 1.01 (inactive)
COc1c(C2COc3cc4c(cc3C2=O)CC(O)C(C)(C)O4)ccc2c1CCC(C)(C)O2 (centres undefined) | 1.02 (inactive)
CO[C@@H]1C[C@@H](C[C@H]2CC[C@H](C)[C@H]([C@@H](C)C(=O)O)O2)O[C@]2(O[C@](C)([C@H]3CC[C@@](C)(C4O[C@@H](C5O[C@@](O)(CO)[C@H](C)C[C@@H]5C)C[C@@H]4C)O3)C[C@H]2C)[C@@H]1C (some centres undefined) | 1.03 (inactive)
CC[C@@H](C(=O)O)[C@@H]1O[C@@H]([C@@H](C)[C@H](O)[C@H](C)C(=O)[C@H](CC)[C@H]2O[C@]3(C=C[C@@H](O)[C@]4(CC[C@@](C)(C5CC[C@](O)(CC)[C@H](C)O5)O4)O3)[C@H](C)C[C@@H]2C)[C@@H](C)C[C@H]1C (some centres undefined) | 0.478 (active)
CC12CCCC(O)(C1)C1CC(C)(C)C1CC2 (centres undefined) | 1 (inactive)

* * *

assay: chemical genetic growth profiling, strain panel (AID 1159580);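 also: tested at 20 µM; growth read once vehicle control cultures reached saturation at 30 °C; 1 = growth at the plate median or of vehicle wells; lower values mean less growth of the strain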; conditions: S. cerevisiae deletion strains, growth OD, locus YCL029C, strain bik1
In all, about 5,500 compounds went through this assay and about 2,000 (36%) were called active. About 18% were inconclusive and are not listed. No stated cut-off is given here; in the data, active means normalized growth mostly below about 0.91 (no sharp cut-off); inconclusive means no clear call, values can overlap the other calls; inactive means mostly above about 0.92. The list shows a part of the results.
Outcomes: active, inactive

MOLECULE | LABEL
C[C@H](COc1ccccc1)N[C@H](C)[C@H](O)c1ccc(O)cc1 | inactive
CC1=C(/C=C/C(C)=C/C=C/C(C)=C/CO)C(C)(C)CCC1 | inactive
CC1=C(/C=C/C(C)=C/C=C/C(C)=C/C(=O)O)C(C)(C)CCC1 | inactive
CCOC(N)=O | inactive
CCN(CC)CCOC(=O)C(Cc1cccc2ccccc12)CC1CCCO1 (stereo not drawn) | inactive
CN1CCc2cccc3c2C1Cc1ccc(O)c(O)c1-3 (stereo not drawn) | inactive
NCc1ccc(S(N)(=O)=O)cc1 | inactive
CN(Cc1cc(Br)cc(Br)c1N)C1CCCCC1 | inactive
CC1(C)C2CC(=O)O[C@@]3(C)C4=CC(=O)O[C@@H](c5ccoc5)[C@]4(C)CCC3[C@@]2(C)C=C[C@H]1O (stereo partly drawn) | inactive
O=C(O)c1cc(=O)c2c(OCC(O)COc3cccc4oc(C(=O)O)cc(=O)c34)cccc2o1 | inactive
CCOP(=S)(OCC)Oc1ccc2c(C)c(Cl)c(=O)oc2c1 | inactive
CCOP(=S)(OCC)SCCSCC | inactive
CCOc1ccc2c(c1)C(C)=CC(C)(C)N2 | inactive
C[C@](N)(Cc1ccc(O)c(O)c1)C(=O)O | inactive
CC(COc1ccccc1)N(CCCl)Cc1ccccc1 (stereo not drawn) | inactive
NC(=O)N/N=C\c1ccc([N+](=O)[O-])o1 | inactive
COc1ccccc1N1CCNCC1 | inactive
CC1=C(/C=C/C(C)=C/C=C/C(C)=C\C(=O)O)C(C)(C)CCC1 | inactive
CCCCC(CC)CN=C(N)NC(N)=NCCCCCCN=C(N)NC(N)=NCC(CC)CCCC (stereo not drawn) | active
COc1c(C2COc3cc4c(cc3C2=O)CC(O)C(C)(C)O4)ccc2c1CCC(C)(C)O2 (stereo not drawn) | inactive
O=C1O[C@@H](CO)[C@H](O)[C@@H](O)[C@@H]1O | inactive
CC(=O)N[C@@H]1[C@@H](C(O)[C@H](O)CO)O[C@](O)(C(=O)O)C[C@@H]1O (stereo partly drawn) | inactive
C/C=C/c1ccc(OC)cc1 | inactive

The reported measurements were obtained from PubChem BioAssay AID1159580.
